The measurements presented in this section are drawn from PubChem BioAssay AID248.

Below, each entry is listed with its recorded T/C.
# Tested on: L1210 leukemia ip in BDF1 mice, survival T/C
# assay_explanation: NCI In Vivo Anticancer Drug Screen. Data for tumor model L1210 Leukemia (intraperitoneal) in B6D2F1 (BDF1) mice
# condition_notes: endpoint: mean survival time; dose: 100.0 mg/kg/injection; schedule: Q01DX005 (ip); vehicle: saline; higher = longer survival
Inconclusive results and toxic doses are left out.
test_readout: T/C

# compound, recorded_result
measured = [
    ("CCOC(=O)c1cn(C2OC(COC(=O)c3ccccc3)C(OC(=O)c3ccccc3)C2OC(=O)c2ccccc2)c(=O)nc1Nc1ccccc1Br (stereo not given)", "97 % of control"),
    ("O=c1[nH][nH]c(=O)c2c(C3OC(CO)C(O)C3O)[nH]nc12 (stereo not given)", "90 % of control"),
    ("CCOC(=O)Nc1cc(Cl)c2n[nH]nc2n1", "110 % of control"),
    ("OCC1OC(c2[nH]nc3c(Cl)ncnc23)C(O)C1O (stereo not given)", "108 % of control"),
    ("OC(c1cccc2ccccc12)c1c2ccccc2cc2ccccc12 (stereo not given)", "98 % of control"),
]

----------
# Tested on: L1210 leukemia ip in BDF1 mice, survival T/C
# assay_explanation: NCI In Vivo Anticancer Drug Screen. Data for tumor model L1210 Leukemia (intraperitoneal) in B6D2F1 (BDF1) mice
# condition_notes: endpoint: mean survival time; dose: 200.0 mg/kg/injection; schedule: Q04DX003 (ip); vehicle: saline with Tween-80; higher = longer survival
Inconclusive results and toxic doses are left out.
test_readout: T/C

# molecule, recorded_result
records = [
    ("CCOC(=O)/C=C(\\C)C(C)=O", "103 % of control"),
    ("Cc1ccc(C(=O)C2CC2)c(C)c1", "95 % of control"),
    ("O=C1OC(=O)C2CC3OC3CC12 (stereo unspecified)", "94 % of control"),
    ("COC(=O)CC(=O)OCC1C=CCC=C1", "95 % of control"),
    ("Cc1ccc(C(=O)C(F)(F)F)cc1", "102 % of control"),
    ("CCOC(=O)C12CCC(C1=O)C(C)(O)CC2 (stereo unspecified)", "97 % of control"),
    ("CCC(C)N(C)/N=N/c1nc[nH]c1C(N)=O (stereo unspecified)", "121 % of control"),
    ("O=C(O)c1cc(C(=O)Nc2cccc3ccccc23)c(C(=O)O)cc1C(=O)Nc1cccc2ccccc12", "105 % of control"),
    ("Cc1ccc(N2CCN(c3ccc([N+](=O)[O-])cc3)CC2)cc1Cl", "100 % of control"),
    ("O=C(c1cccc(C(=O)n2c3c(c4ccccc42)CCCC3)c1)n1c2c(c3ccccc31)CCCC2", "98 % of control"),
    ("CC(C)CC(NC(=O)C(C)NC(=O)OCc1ccccc1)C(=O)OCc1ccccc1 (stereo unspecified)", "92 % of control"),
    ("COC(=O)c1n[nH]c(C(C)C)c1N=NN(C)C", "119 % of control"),
    ("CC1(C)C=Cc2ccccc21", "96 % of control"),
    ("CCOC(=O)c1ccc(C(=O)OCC)nc1", "106 % of control"),
    ("O=C(Nc1ccccc1Cl)OCC#CCOC(=O)Nc1ccccc1Cl", "93 % of control"),
    ("C/C(=N\\NS(=O)(=O)c1ccc(C)cc1)C1CCSC1 (stereo unspecified)", "98 % of control"),
    ("CCC(=O)Nc1cccc(OC(=O)NC2CCCCC2)c1", "98 % of control"),
    ("O=C(C1=CC=CC1=P(c1ccccc1)(c1ccccc1)c1ccccc1)C(Cl)(Cl)Cl", "95 % of control"),
    ("CCCCCCCc1nc(/N=N/N(C)C)c(C(N)=O)[nH]1", "98 % of control"),
    ("Cc1ccc(C(=O)C2CN(C)CCC2(O)c2ccc(C)cc2)cc1 (stereo unspecified)", "103 % of control"),
    ("O=C(/C=C(\\c1ccccc1)c1ccc([N+](=O)[O-])cc1)Nc1ccc(S(=O)(=O)F)cc1", "91 % of control"),
    ("FC(F)(F)c1nc2cccc3c2n1CCC3", "96 % of control"),
    ("CC1OC1CO (stereo unspecified)", "101 % of control"),
    ("CC(C)CC(O)CC(C)C", "93 % of control"),
    ("NC(=S)N/N=C/c1ccc2c(c1)OCO2", "103 % of control"),
    ("CC(=O)OCC(OC(C)=O)C(OC(C)=O)C(C=O)OC(C)=O (stereo unspecified)", "88 % of control"),
]

----------
# Test system: L1210 leukemia ip in BDF1 mice, survival T/C
# assay_explanation: NCI In Vivo Anticancer Drug Screen. Data for tumor model L1210 Leukemia (intraperitoneal) in B6D2F1 (BDF1) mice
# condition_notes: endpoint: mean survival time; dose: 50.0 mg/kg/injection; schedule: Q01DX009 (ip); vehicle: saline with Tween-80; higher = longer survival
# Description: The antitumor activity of compounds was measured in mice bearing transplantable tumors. Survival or tumor size were measured and the results are expressed as the measurement made in the treated group (T) divided by the measurement made in the vehicle treated control group (C). The tumor model used in this assay is L1210 Leukemia (intraperitoneal) in B6D2F1 (BDF1) mice
Inconclusive results and toxic doses are left out.
Below, each entry is listed with its recorded T/C.

# compound, test_system, T/C
records = [
    ("c1ccc2[nH]c(N3CCOCC3)nc2c1", "L1210 leukemia ip in BDF1 mice, survival T/C", "100 % of control"),
    ("COc1ccc(N=Nc2nccs2)c(O)c1", "L1210 leukemia ip in BDF1 mice, survival T/C", "102 % of control"),
    ("c1cc2c(c(NC3=NCCCO3)c1)CCCC2", "L1210 leukemia ip in BDF1 mice, survival T/C", "106 % of control"),
    ("COC(=O)c1n[nH]c(C(C)C)c1N=NN(C)C", "L1210 leukemia ip in BDF1 mice, survival T/C", "116 % of control"),
    ("CC(=O)Nc1ccc(S(=O)(=O)Nc2ccc([N+](=O)[O-])cc2)cc1", "L1210 leukemia ip in BDF1 mice, survival T/C", "100 % of control"),
    ("COc1cc2ccnc(Cc3ccccc3)c2cc1OC", "L1210 leukemia ip in BDF1 mice, survival T/C", "103 % of control"),
    ("NC(=O)N/C=C1\\CCCOC1=O", "L1210 leukemia ip in BDF1 mice, survival T/C", "98 % of control"),
    ("O=C(NNc1cccc(Cl)c1)C(O)C(O)C(O)C(O)CO (stereo not given)", "L1210 leukemia ip in BDF1 mice, survival T/C", "107 % of control"),
    ("O=[N+]([O-])c1ccc(CN=NCc2ccc(Cl)cc2Cl)c(Cl)c1", "L1210 leukemia ip in BDF1 mice, survival T/C", "90 % of control"),
    ("c1cc[c]([Sn]([c]2ccccc2)([c]2ccccc2)[c]2ccccc2)cc1", "L1210 leukemia ip in BDF1 mice, survival T/C", "95 % of control"),
    ("N#CC1C(=O)c2ccccc2C1=O", "L1210 leukemia ip in BDF1 mice, survival T/C", "91 % of control"),
    ("COc1ccc(NC(=O)Nc2ccc(F)c([N+](=O)[O-])c2)c(Cl)c1", "L1210 leukemia ip in BDF1 mice, survival T/C", "100 % of control"),
    ("CC(C)(CO)COS(=O)(=O)c1ccc(Br)cc1", "L1210 leukemia ip in BDF1 mice, survival T/C", "89 % of control"),
    ("c1ccc(CN2CCN(Cc3ccccc3)C2c2ccccc2)cc1", "L1210 leukemia ip in BDF1 mice, survival T/C", "103 % of control"),
    ("O=C(NO)c1ccccc1", "L1210 leukemia ip in BDF1 mice, survival T/C", "98 % of control"),
]

----------
# System: L1210 leukemia ip in BDF1 mice, survival T/C
# assay_explanation: NCI In Vivo Anticancer Drug Screen. Data for tumor model L1210 Leukemia (intraperitoneal) in B6D2F1 (BDF1) mice
# condition_notes: endpoint: mean survival time; dose: 200.0 mg/kg/injection; schedule: Q04DX003 (ip); vehicle: Klucel (hydroxypropylcellulose) (HPC); higher = longer survival
Toxic doses and inconclusive results are not listed.

# compound, T/C
measured = [
    ("CC(NC(=O)NCCCl)C1CC1 (stereo not drawn)", "100 % of control"),
    ("O=c1cc(-c2ccccc2)sc(-c2ccccc2)c1", "105 % of control"),
    ("Cn1ccc(=O)[nH]c1=O", "89 % of control"),
    ("Cc1nc(N)cc(Cl)n1", "103 % of control"),
    ("CC(C)(C)c1cc(C[P+](c2ccc(Cl)cc2)(c2ccc(Cl)cc2)c2ccc(Cl)cc2)cc(C(C)(C)C)c1O", "100 % of control"),
    ("COC(=O)c1cc2c(s1)C(=O)c1ccccc1-2", "94 % of control"),
    ("Cc1cc(C)c(NC(=O)Nc2ccc(Cl)cc2)c(C)c1", "97 % of control"),
    ("C(=C\\c1nc2ccccc2nc1/C=C/c1ccc2c(c1)OCO2)/c1ccc2c(c1)OCO2", "96 % of control"),
    ("O=c1ccc2c([nH]1)CCCCC2", "100 % of control"),
    ("CCCCC(C(=O)OCC)C(CCC1CCCCC1)(C(=O)OCC)C(=O)OCC (stereo not drawn)", "106 % of control"),
    ("NNC(=O)Cc1ccc(Cl)c2ccccc12", "91 % of control"),
    ("CC(C)c1ccc(C(=O)C2CC2)cc1", "96 % of control"),
    ("CCCCCCCCCC(=O)NO", "93 % of control"),
]
